The reported measurements were obtained from paper PMC12005229.

# Measurement protocol: plasma pharmacokinetics, LC-MS/MS, noncompartmental analysis
# Type: in vivo, human
# Setup conditions: human, plasma, oral, single dose day 1 and once-daily multiple doses days 14 or 21; read-out: median time to maximum plasma concentration (tmax)
# Protocol: Samples were collected for PK analysis in cycle 1: 5 min pre-dose, 30 min, 1, 2, 3, 4, 6, and 8 h after drug administration on day 1 (schedules B and C) and on day 14 (for schedule B) or day 21 (for schedule C); 5 min pre-dose on days 8 and 12 (for schedule B) and at time of the visit on day 8 (168 h) for schedule C; 5 min pre-dose on day 18 (at time of the visit) for schedule B; and on day 22 (504 and 512 h) and day 29 (at time of the visit) for schedule C. […]
Parameter: Tmax

So for CNc1nc(-c2nc3ccc(N4CCN(C)CC4)cc3n2Cc2ccccc2)cn2c(C)nnc12 [BI 894999] , the logged Tmax turned out to be ~2 h

---

# Measurement protocol: plasma pharmacokinetics, LC-MS/MS, noncompartmental analysis
# Assay type: in vivo, human
# Setup conditions: human, plasma, oral; phase Ia DLBCL, schedule B 2.5 mg, day 1; read-out: Cmax gMean (gCV, %)
Parameter: Cmax (nM)
Give bare numbers, in nM.

In plain terms, CNc1nc(-c2nc3ccc(N4CCN(C)CC4)cc3n2Cc2ccccc2)cn2c(C)nnc12 [BI 894999] has a documented Cmax of 4.75

---

# Measurement protocol: plasma pharmacokinetics, LC-MS/MS, noncompartmental analysis
# Format: in vivo, human
# Setup conditions: human, plasma, oral, 2 mg, phase Ia DLBCL, schedule B 2.0 mg, day 14; read-out: tmax,ss median
Parameter: Tmax (h)
Numbers only, in h.

Tmax reported for this compound CNc1nc(-c2nc3ccc(N4CCN(C)CC4)cc3n2Cc2ccccc2)cn2c(C)nnc12 [BI 894999] : 2.12

---

# Measurement protocol: plasma pharmacokinetics, LC-MS/MS, noncompartmental analysis
# Assay type: in vivo, human
# Setup conditions: human, plasma, oral, 2 mg, phase Ia DLBCL, schedule B 2.0 mg, day 1; read-out: tmax median
Parameter: Tmax (h)
Answers are plain numbers, in h.

Noted for CNc1nc(-c2nc3ccc(N4CCN(C)CC4)cc3n2Cc2ccccc2)cn2c(C)nnc12 : its Tmax reads 2.01

---

# Measurement protocol: plasma pharmacokinetics, LC-MS/MS, noncompartmental analysis
# Assay type: in vivo, human
# Setup conditions: human, plasma, oral, 2.5 mg, phase Ia DLBCL, schedule B 2.5 mg, day 1; read-out: tmax median
# Experimental: Samples were collected for PK analysis in cycle 1: 5 min pre-dose, 30 min, 1, 2, 3, 4, 6, and 8 h after drug administration on day 1 (schedules B and C) and on day 14 (for schedule B) or day 21 (for schedule C); 5 min pre-dose on days 8 and 12 (for schedule B) and at time of the visit on day 8 (168 h) for schedule C; 5 min pre-dose on day 18 (at time of the visit) for schedule B; and on day 22 (504 and 512 h) and day 29 (at time of the visit) for schedule C. […]
Parameter: Tmax (h)
Give bare numbers, in h.

Query CNc1nc(-c2nc3ccc(N4CCN(C)CC4)cc3n2Cc2ccccc2)cn2c(C)nnc12 yields Tmax of 2.04

---

# Measurement protocol: plasma pharmacokinetics, LC-MS/MS, noncompartmental analysis
# Format: in vivo, human
# Setup conditions: human, plasma, oral, 4 mg, phase Ia DLBCL, schedule C 4.0/2.0 mg, day 1 after loading dose; read-out: tmax median
Parameter: Tmax

The recorded Tmax for CNc1nc(-c2nc3ccc(N4CCN(C)CC4)cc3n2Cc2ccccc2)cn2c(C)nnc12 is 2 h
